Molecular target: Voltage-gated inwardly rectifying potassium channel KCNH3 (Homo sapiens) (UniProt Q9ULD8)
Experiment: Inhibition of BEC1 (unknown origin) expressed in dihydrofolate reductase-deficient CHO cells assessed as decrease in KCl-induced intracellular 86Rb ion release at 3 uM after 20 mins relative to control
Type: cell-based
Observable: inhibition (%)

Previously resolved entries follow.
Molecule	Tested system	inhibition, %
O=[N+]([O-])c1ccc(CCNc2nc(Nc3ccccc3)nc(Nc3ccccc3)n2)cc1	Voltage-gated inwardly rectifying potassium channel KCNH3 (Homo sapiens) (UniProt Q9ULD8)	33
c1ccc(Nc2nc(NCc3cccnc3)nc(Nc3ccccc3)n2)cc1	Voltage-gated inwardly rectifying potassium channel KCNH3 (Homo sapiens) (UniProt Q9ULD8)	59
OCCc1ccccc1Nc1nc(Nc2ccccc2)nc(Nc2ccccc2)n1	Voltage-gated inwardly rectifying potassium channel KCNH3 (Homo sapiens) (UniProt Q9ULD8)	40

I. CC(C)Nc1nc(Nc2ccc3c(c2)OCCO3)nc(Nc2ccc3c(c2)OCCO3)n1
II. c1ccc(Nc2nc(Nc3ccccc3)nc(NC3CCCC3)n2)cc1
III. OC[C@@H](CNc1nc(Nc2ccccc2)nc(Nc2ccccc2)n1)c1ccccc1
IV. CCOC(=O)CCCNc1nc(Nc2ccccc2)nc(Nc2ccccc2)n1
Returns the items ordered by inhibition, from maximum to minimum. Rank the items, then write their labels in that order. III, IV, II, I
(III: 50%, IV: 29%, II: 19%, I: 11%)

----------
Molecular target: Voltage-gated inwardly rectifying potassium channel KCNH3 (Homo sapiens)
Sequence (whole entry): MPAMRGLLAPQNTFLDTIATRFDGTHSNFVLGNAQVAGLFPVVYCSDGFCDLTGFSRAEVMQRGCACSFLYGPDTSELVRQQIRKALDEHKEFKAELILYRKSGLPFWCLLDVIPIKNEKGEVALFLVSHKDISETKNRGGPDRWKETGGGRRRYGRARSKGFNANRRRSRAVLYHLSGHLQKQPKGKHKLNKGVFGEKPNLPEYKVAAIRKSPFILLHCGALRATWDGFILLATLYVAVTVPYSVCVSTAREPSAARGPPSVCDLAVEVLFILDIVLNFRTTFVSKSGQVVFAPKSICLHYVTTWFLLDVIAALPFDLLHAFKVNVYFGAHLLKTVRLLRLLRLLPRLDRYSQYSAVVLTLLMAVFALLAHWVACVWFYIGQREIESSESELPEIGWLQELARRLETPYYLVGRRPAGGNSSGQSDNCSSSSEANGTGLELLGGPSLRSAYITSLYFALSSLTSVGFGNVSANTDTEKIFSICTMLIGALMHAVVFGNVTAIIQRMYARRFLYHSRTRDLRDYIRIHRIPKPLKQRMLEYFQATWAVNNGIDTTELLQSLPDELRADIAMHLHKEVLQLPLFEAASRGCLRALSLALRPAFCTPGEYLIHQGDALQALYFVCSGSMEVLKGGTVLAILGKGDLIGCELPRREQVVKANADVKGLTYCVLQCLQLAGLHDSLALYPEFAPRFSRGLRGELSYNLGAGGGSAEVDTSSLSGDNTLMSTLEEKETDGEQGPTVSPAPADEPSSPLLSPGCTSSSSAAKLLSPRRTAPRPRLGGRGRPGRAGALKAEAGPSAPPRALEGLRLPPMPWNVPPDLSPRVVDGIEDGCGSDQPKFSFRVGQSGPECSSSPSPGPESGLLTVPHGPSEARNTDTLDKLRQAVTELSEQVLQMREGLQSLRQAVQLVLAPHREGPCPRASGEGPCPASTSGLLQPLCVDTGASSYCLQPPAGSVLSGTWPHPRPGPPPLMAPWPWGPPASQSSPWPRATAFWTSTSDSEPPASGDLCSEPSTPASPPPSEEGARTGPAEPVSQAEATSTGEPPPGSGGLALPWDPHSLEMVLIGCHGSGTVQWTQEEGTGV
Assay: Inhibition of BEC1 (unknown origin) expressed in dihydrofolate reductase-deficient CHO cells assessed as decrease in KCl-induced intracellular 86Rb ion release at 3 uM after 20 mins relative to control
Format: cell-based
Observable: inhibition (%)

Previously resolved entries follow.
Compound	Observable	Measurement units	Readout number
CSc1ccc(Nc2nc(Nc3ccc(SC)cc3)nc(NC(C)C)n2)cc1	inhibition	%	10
OC1CCCCC1Nc1nc(Nc2ccccc2)nc(Nc2ccccc2)n1 (stereo unspecified)	inhibition	%	23
Brc1ccc(CNc2nc(Nc3ccccc3)nc(Nc3ccccc3)n2)cc1	inhibition	%	33

P. CC(C)Nc1nc(Nc2ccccc2)nc(Nc2ccc(F)cc2)n1
Q. CSc1ccccc1Nc1nc(Nc2ccccc2)nc(Nc2ccccc2)n1
# argmax over inhibition for candidates P and Q Bench note: the answer is the label of the chosen record. P
(P: 25%, Q: 17%)

----------
Biological target: Voltage-gated inwardly rectifying potassium channel KCNH3 (Homo sapiens) (UniProt Q9ULD8)
Assay: Inhibition of BEC1 (unknown origin) expressed in dihydrofolate reductase-deficient CHO cells assessed as decrease in KCl-induced intracellular 86Rb ion release at 3 uM after 20 mins relative to control
Assay type: cell-based
Observable: inhibition (%)

Previously resolved entries follow.
Item smiles	Readout number
O=[N+]([O-])c1cccc(Nc2nc(Nc3ccccc3)nc(Nc3ccccc3)n2)c1	12
CC(C)Nc1nc(Nc2ccc(Br)cc2)nc(Nc2ccc(Br)cc2)n1	11
Cc1ccc(CNc2nc(Nc3ccccc3)nc(Nc3ccccc3)n2)cc1	35

P. C=CCNc1nc(Nc2ccccc2)nc(Nc2ccccc2)n1
Q. CC(C)Nc1nc(Nc2ccccc2)nc(Nc2ccc(Br)cc2)n1
I'm curious whether P or Q has the smaller inhibition number. Which is it? Bench note: the answer is the label of the chosen record. Q

----------
Target: Voltage-gated inwardly rectifying potassium channel KCNH3 (Homo sapiens)
Test: Inhibition of BEC1 (unknown origin) expressed in dihydrofolate reductase-deficient CHO cells assessed as decrease in KCl-induced intracellular 86Rb ion release at 3 uM after 20 mins relative to control
Type: cell-based
Observable: inhibition (%)

Compound	Observable	Readout number
Cc1c(O)cccc1Nc1nc(Nc2ccccc2)nc(Nc2ccccc2)n1	inhibition	37

P. CCOC(=O)C(C)Nc1nc(Nc2ccccc2)nc(Nc2ccccc2)n1 (stereo not drawn)
Q. O=C1NCCCC[C@@H]1Nc1nc(Nc2ccccc2)nc(Nc2ccccc2)n1
I'm curious whether P or Q has the smaller inhibition number. Which is it? Bench note: the answer is the label of the chosen record. Q
(Q: 10%, P: 36%)
